Target: full-length H5 A/Vietnam/1203/2004 HA expressed on 293T cells (influenza A virus A/Vietnam/1203/2004 (H5N1))
Experiment: cell-based or functional assay
Parameter IC50 of pseudo virus neutralization H5N1 VN/04: see the listing below.
propertyLabel: IC50 of pseudo virus neutralization H5N1 VN/04

| binder | result |
| --- | --- |
| S07 (antibody, V domains shown) VH: EVQLVESGGGLVQPGGSLRLSCAASGFTINSSGIHWVRQAPGKGLEWVASIGPSWGSTYYADSVKGRFTISADTSKNTAYLQMNSLRAEDTAVYYCARFGIGDIDVMDYWGQGTLVTVSS VL: DIQMTQSPSSLSASVGDRVTITCRASQDVWGYVAWYQQKPGKAPKLLISYASFLYSGVPSRFSGSGSGTDFTLTISSLQPEDFATYYCQQYFNWPVTFGQGTKVEIKR | > 200 µg/mL |
| S01 (antibody, V domains shown) VH: EVQLVESGGGLVQPGGSLRLSCAASGFTINNYGIHWVRQAPGKGLEWVASIWPSGGYTSYADSVKGRFTISADTSKNTAYLQMNSLRAEDTAVYYCARFGLGDYDIMDYWGQGTLVTVSS VL: DIQMTQSPSSLSASVGDRVTITCRASQDVWGYVAWYQQKPGKAPKLLISFPSSLYSGVPSRFSGSGSGTDFTLTISSLQPEDFATYYCQQYYDGPVTFGQGTKVEIKR | > 200 µg/mL |
